Molecular target: T1, Soluble recombinant human urokinase receptor (suPAR) (human, UniProt Q03405 23-299, limits assumed, biotinylated in the plate assays (sites not given))
T1 construct: Only called a soluble truncated form of the urokinase receptor; also called soluble uPAR; biotinylated suPAR
T1 sequence (Q03405 23-299 limits assumed): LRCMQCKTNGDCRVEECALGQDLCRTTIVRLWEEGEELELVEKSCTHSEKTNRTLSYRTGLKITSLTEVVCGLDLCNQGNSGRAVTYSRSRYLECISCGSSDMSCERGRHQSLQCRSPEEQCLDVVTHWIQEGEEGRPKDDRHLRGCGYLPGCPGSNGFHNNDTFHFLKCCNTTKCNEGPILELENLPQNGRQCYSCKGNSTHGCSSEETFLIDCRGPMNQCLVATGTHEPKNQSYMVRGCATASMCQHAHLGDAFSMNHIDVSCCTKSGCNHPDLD
Assay: competition with phage displaying peptide 25 for soluble uPAR
Square brackets hold non-standard residues; d marks the D form. Ends that are not written are not given here.
measured.parameter: % Inhibition at 2.5 uM (%)
Just the number in %, nothing appended.

binder: AESTYHHLS[dL]GYMYTLN-NH2 (N-terminus assumed; SMILES CSCC[C@H](NC(=O)[C@H](Cc1ccc(O)cc1)NC(=O)CNC(=O)[C@@H](CC(C)C)NC(=O)[C@H](CO)NC(=O)[C@H](CC(C)C)NC(=O)[C@H](Cc1c[nH]cn1)NC(=O)[C@H](Cc1c[nH]cn1)NC(=O)[C@H](Cc1ccc(O)cc1)NC(=O)[C@@H](NC(=O)[C@H](CO)NC(=O)[C@H](CCC(=O)O)NC(=O)[C@H](C)N)[C@@H](C)O)C(=O)N[C@@H](Cc1ccc(O)cc1)C(=O)N[C@H](C(=O)N[C@@H](CC(C)C)C(=O)N[C@@H](CC(N)=O)C(N)=O)[C@@H](C)O) [Analog 55]
% Inhibition at 2.5 uM [%]: 56
--
binder: AESTYHHLSLGYMYTL[dN]-NH2 (N-terminus assumed; SMILES CSCC[C@H](NC(=O)[C@H](Cc1ccc(O)cc1)NC(=O)CNC(=O)[C@H](CC(C)C)NC(=O)[C@H](CO)NC(=O)[C@H](CC(C)C)NC(=O)[C@H](Cc1c[nH]cn1)NC(=O)[C@H](Cc1c[nH]cn1)NC(=O)[C@H](Cc1ccc(O)cc1)NC(=O)[C@@H](NC(=O)[C@H](CO)NC(=O)[C@H](CCC(=O)O)NC(=O)[C@H](C)N)[C@@H](C)O)C(=O)N[C@@H](Cc1ccc(O)cc1)C(=O)N[C@H](C(=O)N[C@@H](CC(C)C)C(=O)N[C@H](CC(N)=O)C(N)=O)[C@@H](C)O) [Analog 61]
% Inhibition at 2.5 uM [%]: 32

Name the reported % Inhibition at 2.5 uM value associated with the binder AESTYHHLSLGYVYTLN-NH2 [Analog 43]
63

And for A[dE]STYHHLSLGYMYTLN-NH2 (N-terminus assumed; SMILES CSCC[C@H](NC(=O)[C@H](Cc1ccc(O)cc1)NC(=O)CNC(=O)[C@H](CC(C)C)NC(=O)[C@H](CO)NC(=O)[C@H](CC(C)C)NC(=O)[C@H](Cc1c[nH]cn1)NC(=O)[C@H](Cc1c[nH]cn1)NC(=O)[C@H](Cc1ccc(O)cc1)NC(=O)[C@@H](NC(=O)[C@H](CO)NC(=O)[C@@H](CCC(=O)O)NC(=O)[C@H](C)N)[C@@H](C)O)C(=O)N[C@@H](Cc1ccc(O)cc1)C(=O)N[C@H](C(=O)N[C@@H](CC(C)C)C(=O)N[C@@H](CC(N)=O)C(N)=O)[C@@H](C)O) [Analog 47] ?
35
